Would you kindly list Activity for each of these compounds?
biological target: Tyrosine-protein kinase Lck (Homo sapiens); assay: Inhibition of LCK (unknown origin) assessed as remaining activity at […] x 10^-6 M after 120 mins in presence of 33P-ATP (reference value: […]% to […]%)
Sequence (P06239 2-509 limits assumed): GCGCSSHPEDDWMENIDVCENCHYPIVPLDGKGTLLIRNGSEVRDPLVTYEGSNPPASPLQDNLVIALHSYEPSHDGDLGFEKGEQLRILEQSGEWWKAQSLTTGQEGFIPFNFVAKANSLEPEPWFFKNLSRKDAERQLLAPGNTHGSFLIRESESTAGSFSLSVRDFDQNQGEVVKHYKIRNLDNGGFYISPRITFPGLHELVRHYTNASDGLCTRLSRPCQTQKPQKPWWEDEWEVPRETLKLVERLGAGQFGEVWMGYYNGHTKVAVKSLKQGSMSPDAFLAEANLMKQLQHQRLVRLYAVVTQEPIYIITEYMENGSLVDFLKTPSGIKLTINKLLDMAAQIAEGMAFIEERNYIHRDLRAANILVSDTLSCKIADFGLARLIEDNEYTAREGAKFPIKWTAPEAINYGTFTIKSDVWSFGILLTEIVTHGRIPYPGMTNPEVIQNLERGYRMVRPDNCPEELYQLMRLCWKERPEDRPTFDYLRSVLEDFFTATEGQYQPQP

Record summary for COc1cc(/C=N/c2cnc(Nc3ccc(N4CCOCC4)cc3)nc2Oc2ccc(C)cc2OC)cc(OC)c1 : reported Activity = 21.3 to 26.9%

Activity measured on COc1cc(Nc2ncc(NC(=O)c3cc(OC)cc(OC)c3)c(Oc3ccc(C)cc3OC)n2)cc(OC)c1 = 99.6 to 102%

Just so you know, measured Activity for COc1ccc(OC)c(/C=N/c2cnc(Nc3ccc(N4CCOCC4)cc3)nc2Oc2ccc(C)cc2OC)c1 came out at 19.9 to 21.8%

Form: compound = COc1ccccc1NC(=O)Nc1cnc(Nc2ccc(N3CCOCC3)cc2)nc1Oc1ccc(C)cc1OC ; Activity = 82.2 to 82.9%

Recorded result, COc1cc(/C=N/c2cnc(Nc3ccc(N4CCOCC4)cc3)nc2Oc2ccc(F)cc2)cc(OC)c1 , Activity: 62.5 to 64.3%

Looking up COc1cc(C)ccc1Oc1nc(Nc2ccc(N3CCOCC3)cc2)ncc1NC(=O)Nc1cc(Cl)cc(Cl)c1 , I see its Activity listed as 90.9 to 97.7%

Per the records, this compound ( COc1cc(C)ccc1Oc1nc(Nc2ccc(N3CCOCC3)cc2)ncc1NCc1cccc(OC(F)(F)F)c1 ) has Activity equal to 83.5 to 91.3%

According to the records, this compound COc1cc(C)ccc1Oc1nc(Nc2ccc(N3CCOCC3)cc2)ncc1/N=C/c1cc(C(F)(F)F)cc(C(F)(F)F)c1 displays Activity of 19.2 to 20.1%

// recorded Activity for COc1cc(/C=N/c2cnc(Nc3ccc(N4CCOCC4)cc3)nc2Oc2cccc(OC)c2)cc(OC)c1 : 52.6 to 55.2%

The recorded Activity for COc1ccc(NC(=O)Nc2cnc(Nc3cc(OC)cc(OC)c3)nc2Oc2ccc(C)cc2OC)cc1 is 98 to 102%

Just so you know, measured Activity for COc1cc(C)ccc1Oc1nc(Nc2ccc(N3CCOCC3)cc2)ncc1NCc1ccc(Cl)cc1 came out at 20 to 20.2%

Recorded Activity (compound COc1cc(NC(=O)Nc2cnc(Nc3cc(OC)cc(OC)c3)nc2Oc2ccc(C)cc2OC)cc(OC)c1 ): 101 to 106%

The compound listed as COc1cc(C)ccc1Oc1nc(Nc2ccc(N3CCOCC3)cc2)ncc1/N=C/c1cccc(OC(C)C)c1 shows Activity equal to 27.6 to 29.2%

So for COc1cc(NC(=O)Nc2cnc(Nc3ccc(N4CCOCC4)cc3)nc2Oc2cccc(OC)c2)cc(OC)c1 , the logged Activity turned out to be 64.7 to 71%

Value of measured Activity for the entry COc1cc(NC(=O)Nc2cnc(Nc3ccc(N4CCOCC4)cc3)nc2Oc2ccc(F)cc2)cc(OC)c1 : 84 to 87.5%

# Activity (compound: COc1cc(/C=N/c2cnc(Nc3ccc(N4CCOCC4)cc3)nc2Oc2ccc(C(F)(F)F)cc2)cc(OC)c1 ) is 61.8 to 72.5%

Note to self: Activity recorded for COc1cc(C)ccc1Oc1nc(Nc2ccc(N3CCOCC3)cc2)ncc1NC(=O)Nc1c(Cl)cccc1Cl was 86.8 to 89.4%

For record COc1cc(C)ccc1Oc1nc(Nc2ccc(N3CCOCC3)cc2)ncc1/N=C/c1ccccc1Cl the listed Activity is 26.9 to 29.3%
